Entries annotated with measured Blackgrass plant response rating
System: blackgrass
Assay: Test B pre/postemergence blackgrass
Assay type: in vivo, Alopecurus myosuroides
Settings: Preemergence, Rate 500 g/ha; scale of 0 to 10 where 0 is no effect and 10 is complete control

Compound string	Blackgrass plant response rating
CC(Cl)=CCn1c(=O)on(C(=O)N(c2ccc(F)cc2F)C(C)C)c1=O	7
CC(C)N(C(=O)n1oc(=O)n(Cc2nnsc2Cl)c1=O)c1ccccc1	7
Cc1noc(C)c1Cn1c(=O)on(C(=O)N(c2ccccc2)C(C)C)c1=O	9
CC(C)N(C(=O)n1oc(=O)n(CC(=O)N(C)C)c1=O)c1ccc(F)cc1	10

* * *

Tested on: Italian ryegrass
Test: Test E Italian ryegrass
Format: in vivo, Lolium multiflorum
Details: Preemergence, Rate 125 g/ha; 0 to 100 scale (0 no effect, 100 complete control)
Assay readout: Plant response rating, I. Ryegrass

Compound	Quantitative result
CC(C)N(C(=O)n1oc(=O)n(C2CCCCC2)c1=O)c1ccccc1 [Compound 112]	0
CCOCn1c(=O)on(C(=O)N(c2ccc(F)cc2)C(C)C)c1=O [Compound 295]	40
CC(C)N(C(=O)n1oc(=O)n(N(C)C)c1=O)c1ccc(F)cc1 [Compound 170]	70
COCn1c(=O)on(C(=O)N(c2ccc(F)cc2)C(C)C)c1=O [Compound 293]	30
